Molecular target: T1, human glycophorin A on human red blood cells or red blood cell membranes (human, UniProt P02724 20-150)
T1 construct: whole, on cells; also called hRBC; human RBC membranes
T1 sequence (looked up): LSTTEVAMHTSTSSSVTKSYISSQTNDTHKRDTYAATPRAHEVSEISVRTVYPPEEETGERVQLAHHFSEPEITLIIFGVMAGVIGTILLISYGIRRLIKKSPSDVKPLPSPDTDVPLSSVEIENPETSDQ
Assay: ELISA, Fab on coated human RBC membranes
Each entry below carries its reported binding in ELISA relative to parental Fab.
recorded_metric: binding in ELISA relative to parental Fab

• TPP-5702, Hu6C12-24 Fab variant VL: (S24R, A26S, S49A, P54Q, F95Y) (Fab, V domains shown, Built on the parental Fab TPP-4935) VH: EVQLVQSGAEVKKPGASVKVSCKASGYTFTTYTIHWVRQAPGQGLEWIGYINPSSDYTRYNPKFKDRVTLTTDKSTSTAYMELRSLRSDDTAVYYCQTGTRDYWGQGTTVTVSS VL: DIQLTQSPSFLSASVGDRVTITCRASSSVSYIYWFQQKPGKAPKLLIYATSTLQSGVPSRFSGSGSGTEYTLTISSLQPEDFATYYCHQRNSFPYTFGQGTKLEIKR = 10.2 relative to parental Fab
• TPP-5677, Hu6C12-24 Fab variant VH: (I48M, D66G, L70M) (Fab, V domains shown, Built on the parental Fab TPP-4935) VH: EVQLVQSGAEVKKPGASVKVSCKASGYTFTTYTIHWVRQAPGQGLEWMGYINPSSDYTRYNPKFKGRVTMTTDKSTSTAYMELRSLRSDDTAVYYCQTGTRDYWGQGTTVTVSS VL: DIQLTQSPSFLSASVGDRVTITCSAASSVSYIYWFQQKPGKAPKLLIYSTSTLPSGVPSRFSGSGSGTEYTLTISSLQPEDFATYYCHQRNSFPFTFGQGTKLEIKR = 0.8 relative to parental Fab
• TPP-5356, Hu6C12-24 Fab variant VL: (F35Y, Y70F) (Fab, V domains shown, Built on the parental Fab TPP-4935) VH: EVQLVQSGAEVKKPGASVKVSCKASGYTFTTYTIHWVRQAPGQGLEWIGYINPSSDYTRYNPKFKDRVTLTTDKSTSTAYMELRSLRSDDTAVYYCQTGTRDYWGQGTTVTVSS VL: DIQLTQSPSFLSASVGDRVTITCSAASSVSYIYWYQQKPGKAPKLLIYSTSTLPSGVPSRFSGSGSGTEFTLTISSLQPEDFATYYCHQRNSFPFTFGQGTKLEIKR = 0.7 relative to parental Fab
• TPP-5695, Hu6C12-24 Fab variant VH: (L70M, T72R) (Fab, V domains shown, Built on the parental Fab TPP-4935) VH: EVQLVQSGAEVKKPGASVKVSCKASGYTFTTYTIHWVRQAPGQGLEWIGYINPSSDYTRYNPKFKDRVTMTRDKSTSTAYMELRSLRSDDTAVYYCQTGTRDYWGQGTTVTVSS VL: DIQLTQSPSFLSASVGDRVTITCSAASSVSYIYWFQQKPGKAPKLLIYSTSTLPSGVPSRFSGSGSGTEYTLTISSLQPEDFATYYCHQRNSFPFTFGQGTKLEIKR = 0.9 relative to parental Fab
• TPP-4935, humanized 6C12 parental Fab (Hu6C12-24) (Fab, V domains shown, also called parent Fab; TPP-4935 (Parental)) VH: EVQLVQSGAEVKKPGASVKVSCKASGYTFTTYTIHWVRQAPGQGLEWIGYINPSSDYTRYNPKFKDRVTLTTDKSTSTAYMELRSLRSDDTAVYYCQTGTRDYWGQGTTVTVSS VL: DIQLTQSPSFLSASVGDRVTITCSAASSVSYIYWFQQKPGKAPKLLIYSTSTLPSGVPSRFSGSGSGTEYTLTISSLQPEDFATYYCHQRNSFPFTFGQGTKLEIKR = 1 relative to parental Fab
